Tested on: 3T3 host cells
Protocol Details: Host cell number in the same well of the amastigote image-based assay
Set-up: species or system mouse
Conditions Used: 3T3 IC50 or highest dose tested / amastigote IC50; solid sample
SI (3T3) listing for selected compounds.

- Compound: "COc1ccc(C[C@H](N)C(=O)N[C@H]2[C@@H](O)[C@H](n3cnc4c(N(C)C)ncnc43)O[C@@H]2CO)cc1 [Puromycin, puromycin]"
  Measured Target: "3T3 host cells"
  Result: 1.75
- Compound: "Cc1cc(C2CCCCC2)n(O)c(=O)c1 [Ciclopirox Olamine, ciclopirox olamine]"
  Measured Target: "3T3 host cells"
  Result: "> 35.0"
- Compound: "CC[C@@]1(O)C(=O)OCc2c1cc1n(c2=O)Cc2cc3ccccc3nc2-1 [Camptothecin, camptothecin]"
  Measured Target: "3T3 host cells"
  Result: ">55.56"

Turning now to a further record.
// returns reported SI (3T3) for input CC1CS(=O)(=O)CCN1/N=C/c1ccc([N+](=O)[O-])o1 (stereo not shown) [Nifurtimox, nifurtimox]
>157.41
